- Test system: CCRIS mutagenicity, Ames/micronucleus/aberration tests
- experiment_notes: CCRIS mutagenicity studies
- experimental_conditions: Test System: AMES SALMONELLA TYPHIMURIUM; Strain/Indicator: TA100; Metabolic Activation: RAT, LIVER, S-9, AROCLOR 1254; Method: STANDARD PLATE
- Source text: The CCRIS database contains chemical records with carcinogenicity, mutagenicity, tumor promotion, and tumor inhibition test results. It was developed by the National Cancer Institute (NCI). Data are derived from studies cited in primary journals, current awareness tools, NCI reports, and other sources. Test results have been reviewed by experts in carcinogenesis and mutagenesis. CCRIS provides historical information from the years 1985 - 2011. It is no longer updated. […]
The source made the active and inactive calls. No rule for the calls is given here.
measurement_kind: mutagenic call

As a guide, the following entries are already answered.
compound: CCN(CC)c1ccc(N=Nc2c(Cl)cc([N+](=O)[O-])cc2[N+](=O)[O-])cc1
mutagenic call: active; positive
//
compound: C[C@]12CCC(=O)C=C1[C@@H]1C[C@@H]1[C@H]1[C@@H]3[C@@H]4C[C@@H]4[C@@]4(CCC(=O)O4)[C@@]3(C)CC[C@@H]12
mutagenic call: inactive; negative
//
compound: COC1=CC(=O)c2c(nc(C)c3c2[nH]c2ccccc23)C1=O
mutagenic call: active; positive
//
compound: O=C1C=Cc2ccc3c(ccc4ccccc43)c2C1=O
mutagenic call: active; positive

// input: 7 compounds below; output: mutagenic call for each
1. C=CCc1ccc2c(c1)OCO2
2. COCCCN
3. O=S1OCC2C(CO1)C1(Cl)C(Cl)=C(Cl)C2(Cl)C1(Cl)Cl (configuration not stated)
4. CCC1(c2ccccc2)C(=O)N=C(O)NC1=O (configuration not stated)
5. Cc1ncc([N+](=O)[O-])n1C
6. Oc1cc2ccccc2c2ccc3ccccc3c12
7. Nc1ccc([N+](=O)[O-])cc1N

1: inactive; negative; 2: inactive; negative; 3: inactive; negative; 4: inactive; negative; 5: active; positive; 6: inactive; negative; 7: active; positive

// input: 7 compounds below; output: mutagenic call for each
1. O=Cc1cccc2cccnc12
2. O=[N+]([O-])C1=Cc2ccc3ccc4cccc5cc1c2c3c45
3. O=C1c2ccc3ccccc3c2-c2c1ccc1ccccc21
4. C=C(C)C(=O)OCCCCOC(=O)C(=C)C
5. Nc1ccc(N)c2c1C(=O)c1c(N)ccc(N)c1C2=O
6. CCCCC(CC)COC(=O)c1ccccc1C(=O)OCC(CC)CCCC (configuration not stated)
7. CCCCON=O

active; positive
inactive; negative
active; positive
inactive; negative
inactive; negative
inactive; negative
inactive; negative

// input: 4 compounds below; output: mutagenic call for each
1. OCc1ccc2c(CO)c3ccc4ccccc4c3nc2c1
2. CC(Cc1ccc(O)c(O)c1)C(C)Cc1ccc(O)c(O)c1 (configuration not stated)
3. C1=Cc2c(ccc3ccc4ccccc4c23)C1
4. CC=C(C)C(=O)O[C@H]1[C@H](OC(C)=O)[C@]2(CO)[C@H](O)C[C@]3(C)C(=CC[C@@H]4[C@@]5(C)CC[C@@H](O[C@@H]6O[C@H](C(=O)O)[C@@H](O[C@@H]7O[C@H](CO)[C@@H](O)[C@H](O)[C@H]7O)[C@H](O)[C@H]6O[C@@H]6O[C@H](CO)[C@@H](O)[C@H](O)[C@H]6O)[C@](C)(CO)[C@@H]5CC[C@]43C)[C@@H]2CC1(C)C

1: inactive; negative; 2: inactive; negative; 3: active; positive; 4: inactive; negative

----------
- System: CCRIS mutagenicity, Ames/micronucleus/aberration tests
- experiment_notes: CCRIS mutagenicity studies
- experimental_conditions: Test System: AMES SALMONELLA TYPHIMURIUM; Strain/Indicator: TA100; Metabolic Activation: NONE; Method: STANDARD PLATE
Activity calls are given as the source filed them. The rule behind the calls is not given here.
Please answer using one outcome listed in True = active, False = inactive

Examples with answers:
compound: N[C@H](CS)C(=O)O
category_label: False
//
compound: C=CCN1C2c3ccccc3-c3ccccc3C21 (centres undefined)
category_label: True
//
compound: CC(=O)Oc1ccc(CCl)cc1
category_label: True

Query: recorded result category for CCCCOS(=O)(=O)c1ccc(C)cc1 in this test
True

Query: recorded result category for CCCCOc1cc(N=Nc2ccccc2)ccc1N=Nc1c(S(=O)(=O)O)cc2ccc(N)cc2c1O in this test
False

----------
- System: CCRIS mutagenicity, Ames/micronucleus/aberration tests
- experiment_notes: CCRIS mutagenicity studies
- experimental_conditions: Test System: AMES SALMONELLA TYPHIMURIUM; Strain/Indicator: TA1537; Metabolic Activation: RAT, LIVER, S-9, AROCLOR 1254; Method: STANDARD PLATE
Calls of active or inactive are those of the source. No rule for the calls is given here.
Please answer using one outcome listed in T (active), F (inactive)

Examples with answers:
compound: CCCCON=O
category_label: F

compound: C=C(C)C(=O)OCCCCOC(=O)C(=C)C
category_label: F

compound: O=c1[nH]c(=O)n([C@H]2C[C@H](O)[C@@H](CO)O2)cc1CCCl
category_label: F

compound: c1cscn1
category_label: F

compound: C[C@]12CC[C@H](O)C[C@@H]1CC[C@@H]1[C@@H]2CC[C@]2(C)NC(=O)CC[C@@H]12
category_label: F

compound: O=C/C=C/C=C\c1ccc([N+](=O)[O-])cc1
category_label: T

compound: O=[N+]([O-])O
category_label: F

compound: Cc1cccc(NS(=O)(=O)c2cccc3cccnc23)c1
category_label: F

Query: recorded result category for CC(C)C[C@@H]1NC(=O)CNC1=O in this test
F

Query: recorded result category for Nc1c2ccccc2nc2ccccc12 in this test
T

Query: recorded result category for C=CCc1ccc2c(c1)OCO2 in this test
F

----------
- Tested on: CCRIS mutagenicity, Ames/micronucleus/aberration tests
- experiment_notes: CCRIS mutagenicity studies
- experimental_conditions: Test System: AMES SALMONELLA TYPHIMURIUM; Strain/Indicator: TA104; Metabolic Activation: NONE; Method: PREINCUBATION
- Description: The CCRIS database contains chemical records with carcinogenicity, mutagenicity, tumor promotion, and tumor inhibition test results. It was developed by the National Cancer Institute (NCI). Data are derived from studies cited in primary journals, current awareness tools, NCI reports, and other sources. Test results have been reviewed by experts in carcinogenesis and mutagenesis. CCRIS provides historical information from the years 1985 - 2011. It is no longer updated. […]
Active and inactive are the calls of the source. How the calls were made is not given here.
Please answer using one outcome listed in yes (1) = active, no (0) = inactive

compound: O=C1C(=O)c2ccccc2-c2ccccc21
category_label: no (0)

compound: CC(C)(C)c1cc(O)ccc1O
category_label: no (0)

compound: O=C(O)/C(Cl)=C(/CCl)C(=O)O
category_label: no (0)

compound: C=C(Br)C=O
category_label: yes (1)

compound: Cc1cccc(C(=O)Cl)c1
category_label: yes (1)

Query: recorded result category for CC(C)O in this test
no (0)

----------
- Test system: CCRIS mutagenicity, Ames/micronucleus/aberration tests
- experiment_notes: CCRIS mutagenicity studies
- experimental_conditions: Test System: AMES SALMONELLA TYPHIMURIUM; Strain/Indicator: TM677; Metabolic Activation: RAT, LIVER, S-9, AROCLOR 1254; Method: PREINCUBATION
The source made the active and inactive calls. How the calls were made is not given here.
Please answer using one outcome listed in active, inactive

Query: recorded result category for C[C@@]12CCc3occc3[C@H]1CC[C@@]13C[C@@H](CC[C@H]12)[C@@](O)(CO)C3 in this test
inactive

----------
- System: CCRIS mutagenicity, Ames/micronucleus/aberration tests
- experiment_notes: CCRIS mutagenicity studies
- experimental_conditions: Test System: AMES SALMONELLA TYPHIMURIUM; Strain/Indicator: TA100; Metabolic Activation: NONE; Method: STANDARD PLATE
The source made the active and inactive calls. No rule for the calls is given here.
Please answer using one outcome listed in 1 (yes) (active), 0 (no) (inactive)

record_smiles: c1ccc2cc3ccccc3cc2c1
category_label: 0 (no)

record_smiles: CC(C)(C)c1cc(O)ccc1O
category_label: 0 (no)

record_smiles: CCCCCCCCCCCC(=O)OOC(=O)CCCCCCCCCCC
category_label: 0 (no)

Query: recorded result category for ClCCNCCCNc1c2ccccc2nc2ccccc12 in this test
1 (yes)

Query: recorded result category for CN(Cc1cnc2nc(N)nc(N)c2n1)c1ccc(C(=O)N[C@@H](CCC(=O)O)C(=O)O)cc1 in this test
0 (no)

----------
- Tested on: CCRIS mutagenicity, Ames/micronucleus/aberration tests
- experiment_notes: CCRIS mutagenicity studies
- experimental_conditions: Test System: AMES SALMONELLA TYPHIMURIUM; Strain/Indicator: TA98; Metabolic Activation: HAMSTER, LIVER, S-9, AROCLOR 1254 (30%); Method: PREINCUBATION
The source made the active and inactive calls. How the calls were made is not given here.
Please answer using one outcome listed in yes = active, no = inactive

Examples with answers:
compound: ClC(Cl)(Cl)c1ccccc1
category_label: yes

compound: CCCCC(CC)COCCCN (stereo not drawn)
category_label: no

compound: CN1CCC(CN2c3ccccc3Sc3ccccc32)C1 (stereo not drawn)
category_label: no

compound: COP(=O)(OC)OC=C(Cl)Cl
category_label: no

Query: recorded result category for CCCCNC(=O)n1c(NC(=O)OC)nc2ccccc21 in this test
no

Query: recorded result category for O=Cc1ccccc1Cl in this test
no

Query: recorded result category for Nc1ccc(Br)cc1 in this test
no

Query: recorded result category for Nc1ccccc1C(=O)OC1CCCCC1 in this test
no

meta.source: PubChem BioAssay AID1259407
